assay: Hypochlorous acid (HOCl) scavenging assay; details: linear regression
Entries annotated with measured pIC50
Remember, pIC50 is on a log scale: it is -log10 of the molar concentration.

Please review the following examples before continuing.
O=C(/C=C/c1ccc(O)c(O)c1)O[C@@H]1C[C@](O)(C(=O)O)C[C@@H](OC(=O)/C=C/c2ccc(O)c(O)c2)[C@H]1OC(=O)/C=C/c1ccc(O)c(O)c1 [3,4,5-triCQA (7), 3,4,5-tri-O-caffeoylquinic acid] = 4.93
Cc1c(C)c2c(c(C)c1O)CCC(C)(C(=O)O)O2 (centres unmarked) [Trolox, reference compound] = 4.47
O=C(/C=C/c1ccc(O)c(O)c1)O[C@@H]1C[C@](O)(C(=O)O)C[C@@H](OC(=O)/C=C/c2ccc(O)c(O)c2)[C@H]1O [3,5-diCQA (5), 3,5-di-O-caffeoylquinic acid] = 5.53
O=C(/C=C/c1ccc(O)c(O)c1)O[C@H]1[C@H](O)C[C@](O)(C(=O)O)C[C@H]1OC(=O)/C=C/c1ccc(O)c(O)c1 [3,4-diCQA (4), 3,4-di-O-caffeoylquinic acid] = 5.24

Then there is this molecule:
Request: Recorded pIC50 for O=C(/C=C/c1ccc(O)c(O)c1)O[C@@H]1[C@H](O)C[C@@](O)(C(=O)O)C[C@H]1OC(=O)/C=C/c1ccc(O)c(O)c1 [4,5-diCQA (6), 4,5-di-O-caffeoylquinic acid] , please?
Response: 5.34

====

assay: Hypochlorous acid (HOCl) scavenging assay; conditions: 12.5 µM
OBSERVATION_TYPE: HOCl Scavenging Activity Inhibition (%)
Express the result in % but write the number alone.

Please review the following examples before continuing.
O=C(/C=C/c1ccc(O)c(O)c1)O[C@@H]1[C@H](O)C[C@@](O)(C(=O)O)C[C@H]1OC(=O)/C=C/c1ccc(O)c(O)c1 = 65.80
O=C(/C=C/c1ccc(O)c(O)c1)O[C@H]1[C@H](O)C[C@](O)(C(=O)O)C[C@H]1OC(=O)/C=C/c1ccc(O)c(O)c1 = 59.15
O=C(/C=C/c1ccc(O)c(O)c1)O[C@@H]1C[C@](O)(C(=O)O)C[C@@H](OC(=O)/C=C/c2ccc(O)c(O)c2)[C@H]1OC(=O)/C=C/c1ccc(O)c(O)c1 = 52.93

Then there is this compound:
Request: Recorded HOCl Scavenging Activity Inhibition (%) for O=C(/C=C/c1ccc(O)c(O)c1)O[C@@H]1C[C@](O)(C(=O)O)C[C@@H](OC(=O)/C=C/c2ccc(O)c(O)c2)[C@H]1O , please?
Response: 62.86
